System: A-375
Assay: Cytotoxicity against human A-375 cells assessed as reduction in cell viability by MTT assay
Format: functional, cell-based
pIC50: −log10 of the molar value.
Record class 1 whenever pIC50 is at 5 or higher; record class 0 when lower.

| chem smiles | target entity | class assignment |
| --- | --- | --- |
| O=S(=O)(NCCNc1nccc(-c2c(-c3cccc(F)c3)nc3sccn23)n1)c1ccc(Cl)cc1 | A-375 | class 0 |
| COc1ccc(S(=O)(=O)NCCCNc2nccc(-c3c(-c4cccc(F)c4)nc4sccn34)n2)cc1 | A-375 | class 1 |
| Cc1ccc(C(=O)NCCNc2nccc(-c3c(-c4cccc(F)c4)nc4sccn34)n2)cc1 | A-375 | class 1 |
| O=C(NCCNc1nccc(-c2c(-c3cccc(F)c3)nc3sccn23)n1)c1ccc(Cl)cc1 | A-375 | class 1 |
| O=C(NCCNc1nccc(-c2c(-c3cccc(F)c3)nc3sccn23)n1)c1c(F)cccc1F | A-375 | class 1 |
| O=C(NCCCNc1nccc(-c2c(-c3cccc(F)c3)nc3sccn23)n1)c1ccc(F)cc1 | A-375 | class 0 |

Reference source for all entries: ChEMBL document CHEMBL4665642
